Each entry below carries its reported %Inh.
system: SIK; conditions: concentration: 1 μM, replicates: in singlicate; n = 1;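 further: KINOMEscan kinase panel screen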
Quote the value and follow it with the unit of measurement.

> print(dat)
                                  smilesstr  result
1  COc1cccc(C2=C(Nc3ccc(Cl)c(C(=O)O)c3)C(=O)NC2=O)c1      0%
2  CSc1cccc2c(-c3ccncn3)c(-c3ccc(F)cc3)nn12      2%
3  Cn1cc(-c2ccc3c(c2)CCN3C(=O)Cc2cccc(F)c2)c2c(N)ncnc21      4%

API: the following record is the query input.
input: Indicate the recorded %Inh value for this compound: CN(C)Cc1ccc(-c2ccc3c(Nc4ccc(Oc5ccccn5)cc4)ccnc3c2)o1
output: 99.2%

---

Each entry below lists one item and its recorded %Inh value.
test system: EPHA7; details: concentration: 1 μM, replicates: in singlicate; n = 1
Note: state the figure and append the unit.

# annotated cases, reported %Inh shown
> print(dat)
                                   molecule  readoutkind  result
1  CC(C)c1nc(-c2cccc(NS(=O)(=O)c3c(F)cccc3F)c2F)c(-c2ccnc(Nc3ccc(N4CCOCC4)nc3)n2)s1 [GSK2008607]         %Inh      0%
2  Cn1cc(-c2ccc3c(c2)CCN3C(=O)Cc2cccc(F)c2)c2c(N)ncnc21 [GSK2603358]         %Inh      7%
3  CCCCc1nn2ncccc2c1-c1ccnc(Nc2ccc(N3CCN(C)CC3)cc2)n1 [GW684941]         %Inh      0%
4  CC(=O)Nc1nc2cnc(Nc3cc(NC(=O)c4cccc(C5(C#N)CC5)c4Cl)ccc3C)nc2s1         %Inh      0%
5  Nc1ncnc2c1nc(-c1ccccc1)n2-c1ccccc1 [SKF-97293]         %Inh      0%
6  COc1cc(Nc2nccc(-c3c(-c4cccc(NC(=O)c5c(F)cccc5F)c4)nn4ccccc34)n2)cc(OC)c1OC [GSK323521]         %Inh     15%

Query molecule follows.
input: Identify measured %Inh corresponding to CNC(=O)c1ccccc1Nc1nc(Nc2ccc(N3CCOCC3)cc2)ncc1Cl.Cl [GSK1576028]
output: 88%

---

system: PIK3CD; conditions: concentration: 1 μM, replicates: in singlicate; n = 1
readoutKind: %Inh (%)
Answer in %, number only, no unit symbol.

> print(dat)
                                   compound  assayedtarget  valueunits  recordednumber
1  FC(F)(F)c1ccc(/C=C/c2cncnc2Nc2ccc3[nH]c(Cc4ccccc4)nc3c2)cc1         PIK3CD           %               0
2  Cl.c1ccc(-c2ccc3c(Nc4ccc5[nH]ncc5c4)ccnc3c2)nc1         PIK3CD           %               2

input: Recall the reported %Inh of COc1ccc(Nc2nccc(N3CCC(NC(=O)Nc4cccc(OC)c4)C3)n2)cc1 (stereo not drawn) on PIK3CD and write it down.
output: 0

input: Recall the reported %Inh of Nc1ncnc2c1nc(-c1ccccc1)n2-c1ccccc1 on PIK3CD and write it down.
output: 17

input: Please report %Inh with PIK3CD for item COc1ccc(Nc2nccc(NCCNC(=O)c3cc4ccccc4s3)n2)cc1 .
output: 0

input: Look up and report %Inh, with PIK3CD as system, for c1ccc(-c2cnc3nccnn23)cc1
output: 0

input: Please look at C[C@@H]1CC[C@@H](C(=O)Nc2ccccc2)CN1c1cc(-c2ccc3c(N)n[nH]c3c2)nc(N)n1 and tell me its recorded %Inh on PIK3CD.
output: 0
